Target: Human TTR (Homo sapiens, UniProt P02766)
Construct: Transthyretin (prealbumin, TTR) >95% from human plasma; purchased Sigma Aldrich (Zwijndrecht, The Netherlands); host or cells: human plasma
Test: Optimized competitive TTR-binding assay with FITC-T4 (fluorescence intensity readout)
Settings: TTR IC50 [95% CI], 55 nM FITC-T4, 30 nM TTR, RT (15 min)
Protocol: All TTR-binding experiments were performed in black 96-well polystyrene nonbinding plates. Experimental wells and background wells were prepared in triplicate per plate. […] Fluorescence intensity (FI) was measured at λex = 485 ± 20 nm and λem = 528 ± 20 nm (CLARIOstar Plus microplate reader, BMG LABTECH). […]
MEASURED_ENDPOINT: pIC50
Please keep in mind that pIC50 is minus log10 of the molar concentration; only the number is needed.

> print(dat)
                              smiles.string  measured.endpoint  observed.result
1  O=S(=O)(O)C(F)(F)C(F)(F)C(F)(F)C(F)(F)C(F)(F)C(F)(F)C(F)(F)C(F)(F)F              pIC50             6.72

Turning to the following molecule.
Challenge: Quick check: pIC50 of `O=C(O)C(F)(F)C(F)(F)C(F)(F)C(F)(F)C(F)(F)C(F)(F)C(F)(F)F` ?
Response given: 6.30
